Taken from ChEMBL document CHEMBL1130883.

- System: Cryptococcus neoformans
- experiment: Compound was tested in vitro for antifungal activity against Cryptococcus neoformans (CY1057)
observable: IC80

compound | result
CCc1ccc(CC[C@@H]2CCC(C)(C)C(OCCO)[C@H]2Cn2cncn2)cc1 (stereo partly specified) | 0.36 µg/mL
CC(O)c1ccc(CC[C@@H]2CCC(C)(C)/C(=N/O)[C@H]2Cn2cncn2)cc1 (stereo partly specified) | > 200 µg/mL

Tell me reported IC80 for OC(Cn1cncn1)(Cn1cncn1)c1ccc(F)cc1F , tested with Cryptococcus neoformans.
6.2 µg/mL

Quick one: CCc1ccc(CC[C@@H]2CCC(C)(C)[C@H](OC)[C@H]2Cn2cncn2)cc1
0.74 µg/mL

Quick one: CC(=O)c1ccc(CC[C@@H]2CCC(C)(C)/C(=N/O)[C@H]2Cn2cncn2)cc1
> 200 µg/mL

Quick one: CCc1ccc(CC[C@@H]2CCC(C)(C)/C(=N/OC)[C@H]2Cn2cncn2)cc1
0.48 µg/mL

Quick one: CO/N=C1\[C@@H](Cn2cncn2)[C@H](COc2ccc(OC(F)(F)F)cc2)CCC1(C)C
7.6 µg/mL

Quick one: COC1[C@@H](Cn2cncn2)[C@H](COc2ccc(OC(F)(F)F)cc2)CCC1(C)C (stereo partly specified)
0.51 µg/mL

###

- Tested on: Cryptococcus neoformans
- experiment: Compound was tested in vitro for antifungal activity against Cryptococcus neoformans (CY1057)
Listed below: IC80 values for each entry.
Express your answer in µg/mL, writing the number without its unit.

compound | measurement-unit | IC80
CC1(C)CC[C@@H](COc2ccc(OC(F)(F)F)cc2)[C@H](Cn2cncn2)C1OCCO (stereo partly drawn) | µg/mL | 5.2

Consider the record given below.
Fill in: IC80 of CCc1ccc(CC[C@@H]2CCC(C)(C)/C(=N/O)[C@H]2Cn2cncn2)cc1 is ___
130
